Values compiled from the supplement of paper PMC10567573.

B1: DFFB (parent)
chain: TLVEAIKEQDGREVDWEYFYGLLF

Variants of: B1
Assay: protein stability index of a GFP-peptide fusion (GPS, HEK-293T) (PSI 1-6); higher = more stable;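 further: lentivirally expressed fusions sorted by FACS into six bins by GFP to DsRed ratio, PSI derived from sequencing read proportions per bin multiplied by bin number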
Conditions: c terminus: a fixed tail appended
measured-attribute: protein stability index
Form field (numeric): enter value without unit.

Before answering, review these 3 worked examples.
{"columns": ["sequence-code", "protein stability index"],
 "data": [
  ["TLSEAIKEQDGREVDWEYFYGLLF [V3S]", 3.22],
  ["TLMEAIKEQDGREVDWEYFYGLLF [V3M]", 2.28],
  ["TLVEAIKEQDGREQDWEYFYGLLF [V14Q]", 1.7]
]}

Tell me measured protein stability index for TLVEWIKEQDGREVDWEYFYGLLF [A5W] please.
2.84

Tell me measured protein stability index for TLVEAIKEQDGREVDWEYFDGLLF [Y20D] please.
2.36

Tell me measured protein stability index for TLVEAIKEQDGREDDWEYFYGLLF [V14D] please.
1.28

Tell me measured protein stability index for TLVEAIKEQDGREVDYEYFYGLLF [W16Y] please.
1.72

Tell me measured protein stability index for TLVEAIKPQDGREVDWEYFYGLLF [E8P] please.
2.38

Tell me measured protein stability index for TLVEAIKEQLGREVDWEYFYGLLF [D10L] please.
1.91

Tell me measured protein stability index for TLHEAIKEQDGREVDWEYFYGLLF [V3H] please.
2.16
